- Tgt: T1, PSA 146-154 peptide/HLA-A*02:01 complex on the cell surface (human)
- T1 construct: also called PSA146/HLA-A*02:01; PSA146-loaded T2 cells
- Protocol text: flow cytometry, phage on T2 cells, anti-M13 + R-PE anti-mouse IgG
Quantity: binding result

Would you please look over these solved cases?
| Binder | binding result |
| --- | --- |
| PSA146/HLA-A*02:01-specific scFv phage clone #6 (scFv, V domains shown) VH: EVQLVQSGAEVKKPGASVKVSCKASGYTFTGYYIHWVRQAPGQGLEWMGGFDPEDGETIYAQKFQDRVTMTADTSTDTAYMELSSLRSEDTAVYYCARYGFDYWGQGTLVTVSS VL: QAVVTQEPSLTVSPGGTVTLTCASSTGAVTSGYYPNWFQLKPGQAPRALIYTTGKKHSWAPARFSGSLLGGKAALTLSGVQPEDEAEYYCLLYSGGVWVFGGGTKLTVLG | binds |
| PSA146/HLA-A*02:01-specific scFv phage clone #12 (scFv, V domains shown) VH: QMQLVQSGSEVKKPGASVKVSCKASGYTFTSYGISWVRQAPGQGLEWMGWISAYNGNTDYVQKLQGRVTMTTDTSTNTAYMELGSLGSDDTAVYYCARTNYNKYDIWGQGTLVTVSS VL: QSVLTQPPSVSGAPGQRVTISCTGSSSNIGAGYDVHWYQQLPGTAPKLLIYGNSNRPSGVPDRFSGSKSGTSASLAITGLQAEDEADYYCQSYDSSLSEVFGTGTKVTVLG | binds |
| PSA146/HLA-A*02:01-specific scFv phage clone #14 (scFv, V domains shown) VH: EVQLVQSGAEVKKPGASVKVSCKASGYTFTGYFMHWVRQAPGQGLEWMGGFDPEDGETIYAQKFQGRVTMTEDTSTDTAYMELSSLRSEDTAVYYCARYSYDLWGQGTLVTVSS VL: QTVVTQEPSLTVSPGGTVTLTCASSTGAVTSGYYPNWFQQKPGQAPRALIYSTSNKHSWTPARFSGSLLGGKAALTLSGVQPEDEAEYYCLLYYGGAQWVFGGGTKLTVLG | binds |
| PSA146/HLA-A*02:01-specific scFv phage clone #13 (scFv, V domains shown) VH: QVQLVQSGAEVKKPGASVKVSCKASGYTFTSYYMHWVRQAPGQGLEWMGGFDPEDGETIYAQKFQGRVTMTEDTSTDTAYMGLSSLRSEDTAVYYCARYSYDYWGQGTLVTVSS VL: QAVVTQEPSLTVSPGGTVTLTCASSTGAVTSGYYPNWFQQKPGQAPRALIYSTSNKHSWTPARFSGSLLGGKAALTLSGVQPEDEAEYYCLLYYGGAYVFGTGTKVTVLG | binds |

The binder PSA146/HLA-A*02:01-specific scFv phage clone #5 (scFv, V domains shown) VH: QVQLVQSGAEVKKPGDSVKVSCKPSGYNFLNYGINWVRQAPGQGLEWMGWISTYTGNTNYAQKLQGRVTFTTDTSTSTAYMEMRSLRSDDTAVYYCARSSEYYTWDHWGQGTLVTVSS VL: QSVLTQPPSVSGAPGQRVTISCTGSSSNIGAGYDVHWYQQLPGTAPKLLIYGNSNRPSGVPDRFSGSKSGTSASLAITGLQAEDEADYYCQSYDSSLSGWVFGGGTKLTVLG showed binding result equal to binds
